# tgt: Recombinant human Cbl-b (aa 36-427) (Homo sapiens (Human), UniProt Q13191)
# Sequence (Q13191 36-427): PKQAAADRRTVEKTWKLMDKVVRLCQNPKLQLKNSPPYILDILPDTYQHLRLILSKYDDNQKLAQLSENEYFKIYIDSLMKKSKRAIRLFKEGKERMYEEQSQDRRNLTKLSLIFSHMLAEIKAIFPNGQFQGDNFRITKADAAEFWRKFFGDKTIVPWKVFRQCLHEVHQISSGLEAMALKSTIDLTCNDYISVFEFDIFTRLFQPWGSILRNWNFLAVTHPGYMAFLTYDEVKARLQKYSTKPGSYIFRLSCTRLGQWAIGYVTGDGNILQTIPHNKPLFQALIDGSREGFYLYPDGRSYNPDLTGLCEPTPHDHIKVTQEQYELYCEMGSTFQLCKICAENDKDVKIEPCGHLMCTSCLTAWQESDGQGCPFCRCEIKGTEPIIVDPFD
# assay-remarks: Cbl-b Biochemical Assay (TR-FRET)
# details: read-out: TR-FRET hCbl-b IC50
assay-metric: IC50

// worked examples, IC50 included
{"compound": "CN(Cc1cc2c(c(C(F)(F)F)c1)CN(c1cc(-c3c(-c4nncn4C)cnn3C)cc(C3CC3)n1)C2=O)CC1(O)CCC1 [AJW-1]", "IC50": "≤ 200 nM"}
{"compound": "CC(C)c1cc(-c2ccc(F)cc2-c2nncn2C)cc(N2Cc3ccc(CNCC4(O)CCC4)cc3C2=O)n1 [AFX-1]", "IC50": "≤ 200 nM"}
{"compound": "Cn1cnnc1-c1cc(C#N)ccc1-c1cc(C2CC2)nc(N2Cc3c(cc(CNCCO)cc3C(F)(F)F)C2=O)c1 [AEO-2]", "IC50": "≤ 200 nM"}
{"compound": "Cn1cnnc1-c1cc(C#N)ccc1-c1cc(C2CC2)nc(N2Cc3c(F)cc(CNCC4COC4)cc3C2=O)c1 [ANB-1]", "IC50": "≤ 200 nM"}

Retrieve IC50 measured for COC(=O)C1(c2cc(-c3ccccc3-c3nncn3C)cc(N3Cc4c(cccc4C(F)(F)F)C3=O)n2)CC1 [ACJ-6] and print it. 10000 to 50000 nM

Return the recorded IC50 value; entry: Cn1cnnc1-c1cc(C#N)ccc1-c1cc(C2CC2)nc(N2Cc3c(F)cc(CN[C@@]4(C)COC[C@H]4O)cc3C2=O)c1 (stereo in doubt) [AOG-1] ≤ 200 nM

Provide only the value of recorded IC50 for CCNc1cc(-c2ccccc2-c2nncn2C)cc(N2Cc3c(cc(CN[C@H]4CCC[C@@H]4O)cc3C(F)(F)F)C2=O)n1 [AP-1] ≤ 200 nM

// Input: C#CCOc1ccc(-c2cc(NCC)nc(N3Cc4c(cccc4C(F)(F)F)C3=O)c2)c(-c2nncn2C)c1 [AHU-12] . Output its IC50 only. ≤ 200 nM

Write down IC50 measured for item CN1CCC(OCc2cc3c(c(C(F)(F)F)c2)CN(c2cccc(-c4ccccc4-c4nncn4C)c2)C3=O)CC1 [BC-4] 200 to 1000 nM

Note down IC50 recorded for CNCCNCc1ccc2c(c1)C(=O)N(c1cc(-c3ccc(C#N)cc3-c3nncn3C)cc(C3CC3)n1)C2 [ALZ-3] ≤ 200 nM

Report measured IC50; entry is CCNc1cc(-c2c(-c3nncn3C)cnn2C)cc(N2Cc3ccc(CNCC4(O)CCC4)cc3C2=O)n1 [AEE-2] ≤ 200 nM

---

Below is a list of entries, each paired with its recorded IC50 value.
# tgt: Recombinant human Cbl-b (aa 36-427) (Homo sapiens (Human))
# assay-remarks: Cbl-b Biochemical Assay (TR-FRET)
# details: read-out: TR-FRET hCbl-b IC50

Examples from the recorded data:
{"smiles-text": "Cn1cnnc1-c1cc(F)ccc1-c1cccc(N2Cc3c(cc(CNCC4(O)CCC4)cc3C(F)(F)F)C2=O)c1", "assay-metric": "IC50", "reported-value": "≤ 200 nM"}
{"smiles-text": "COc1cc2c(cc1CNCC1(O)CCC1)C(=O)N(c1cc(-c3ccccc3-c3nncn3C)cc(C3CC3)n1)C2", "assay-metric": "IC50", "reported-value": "≤ 200 nM"}

Kindly consider the entry below.
Tell us which IC50 value is on record for `Cn1cnnc1-c1cnn(C)c1-c1cccc(N2Cc3c(cc(CN[C@@H]4CCC[C@@H]4O)cc3C(F)(F)F)C2=O)c1` ≤ 200 nM

---

# tgt: Recombinant human Cbl-b (aa 36-427) (Homo sapiens (Human), UniProt Q13191)
# assay-remarks: Cbl-b Biochemical Assay (TR-FRET)
# details: read-out: TR-FRET hCbl-b IC50
pIC50: −log10 of the molar value.
assay-metric: pIC50

Identify the reported pIC50 for the following entry. `Cn1cnnc1-c1cc(C#N)ccc1-c1cc(C2CC2)nc(N2Cc3ccc(CNCC4CCCC4)cc3C2=O)c1` ≥ 6.70

---

Listed molecules paired with reported pIC50
# tgt: Recombinant human c-Cbl (aa 47-435) (Homo sapiens (Human), UniProt P22681)
# Sequence (P22681 47-435): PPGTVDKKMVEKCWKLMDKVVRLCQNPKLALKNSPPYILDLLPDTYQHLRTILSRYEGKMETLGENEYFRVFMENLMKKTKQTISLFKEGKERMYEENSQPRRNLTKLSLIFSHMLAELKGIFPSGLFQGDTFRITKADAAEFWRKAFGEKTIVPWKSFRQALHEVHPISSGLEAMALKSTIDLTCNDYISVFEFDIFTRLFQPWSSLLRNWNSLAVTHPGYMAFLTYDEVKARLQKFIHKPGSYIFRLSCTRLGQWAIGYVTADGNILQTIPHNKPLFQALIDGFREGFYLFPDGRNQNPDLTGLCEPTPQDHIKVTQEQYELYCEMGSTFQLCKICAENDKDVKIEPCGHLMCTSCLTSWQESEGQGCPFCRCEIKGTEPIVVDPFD
# assay-remarks: c-Cbl Biochemical Assay (TR-FRET)
pIC50: −log10 of the molar value.

Solved cases below.
{"smiles-text": "Cn1cnnc1-c1cc(C#N)ccc1-c1cc(C2CC2)nc(N2Cc3c(cc(CO)c(F)c3F)C2=O)c1", "pIC50": "≥ 6.70"}
{"smiles-text": "Cn1cnnc1-c1cc(C#N)ccc1-c1cc(C2CC2)nc(N2Cc3ccc(C(C)(C)NC4CCC4)cc3C2=O)c1", "pIC50": "≥ 6.70"}

Given the molecule `COc1cc2c(cc1CNCC1CCC1)C(=O)N(c1cc(-c3ccc(C#N)cc3-c3nncn3C)cc(C3CC3)n1)C2` , write its reported pIC50. 5.00 to 6.00

Tell me its pIC50 given `CN(Cc1ccc2c(c1)C(=O)N(c1cc(-c3ccc(C#N)cc3-c3nncn3C)cc(C3CC3)n1)C2)CC1CCCC1` as the entry. ≥ 6.70

---

# tgt: Recombinant human Cbl-b (aa 36-427) (Homo sapiens (Human))
# assay-remarks: Cbl-b Biochemical Assay (TR-FRET)
# details: read-out: TR-FRET hCbl-b IC50
assay-metric: IC50

Example entries and their recorded answers appear below.
{"molecule": "Cn1cnnc1-c1cc(C#N)ccc1-c1cc(C2CC2)nc(N2Cc3ccc(C(C)(C)NCC4COC4)cc3C2=O)c1 [AMT-2]", "assay-metric": "IC50", "reported-value": "≤ 200 nM"}
{"molecule": "Cn1cnnc1-c1cnn(C)c1-c1cc(C2CC2)nc(N2Cc3c(cc(CO[C@H]4CCC[C@H]4O)cc3C(F)(F)F)C2=O)c1 [AGA-1]", "assay-metric": "IC50", "reported-value": "≤ 200 nM"}
{"molecule": "Cn1cnnc1-c1cnn(C)c1-c1cc(C2CC2)nc(N2Cc3ccc(CNCC4(O)CCCC4)cc3C2=O)c1 [AFQ-3]", "assay-metric": "IC50", "reported-value": "≤ 200 nM"}
{"molecule": "Cn1cnnc1-c1cc(C#N)ccc1-c1cc(C2CC2)nc(N2Cc3c(F)cc(CN4CC[C@@H]5C[C@@H]54)cc3C2=O)c1 [AMY-1]", "assay-metric": "IC50", "reported-value": "≤ 200 nM"}
{"molecule": "Cn1cnnc1-c1cc(C#N)ccc1-c1cc(C2CC2)cc(N2Cc3ccc(CNCC4CC4)cc3C2=O)c1 [AJR-1]", "assay-metric": "IC50", "reported-value": "≤ 200 nM"}

State its IC50 for this molecule: COC[C@H]1CCN1Cc1cc(F)c2c(c1)C(=O)N(c1cc(-c3ccc(C#N)cc3-c3nncn3C)cc(C3CC3)n1)C2 [AOW-2] ≤ 200 nM

Assign IC50 to the following record: Cn1cnnc1-c1ccccc1-c1cc(C2CC2)nc(N2Cc3c(cc(CN4CCC5(CC5)C4)cc3C(F)(F)F)C2=O)c1 [ACL-1] ≤ 200 nM

---

This listing pairs compounds with measured IC50.
# tgt: Recombinant human Cbl-b (aa 36-427) (Homo sapiens (Human), UniProt Q13191)
# assay-remarks: Cbl-b Biochemical Assay (TR-FRET)
# details: read-out: TR-FRET hCbl-b IC50

{"compound": "CCNc1cc(-c2ccc(Cl)cc2-c2nncn2C)cc(N2Cc3c(cccc3C(F)(F)F)C2=O)n1 [ACR-7]", "assay-metric": "IC50", "reported-value": "≤ 200 nM"}

Under Recombinant human Cbl-b (aa 36-427) (Homo sapiens (Human), UniProt Q13191): report IC50 of CCNc1cc(-c2c(-c3nncn3C)cnn2C)cc(N2Cc3c(cc(CN4CCC(F)C4)cc3C(F)(F)F)C2=O)n1 (stereo not shown) [ABP-3] . ≤ 200 nM

State IC50 (Recombinant human Cbl-b (aa 36-427) (Homo sapiens (Human), UniProt Q13191)) of C[C@H](NC1COC1)c1ccc2c(c1)C(=O)N(c1cc(-c3ccc(C#N)cc3-c3nncn3C)cc(C3CC3)n1)C2 [AOB-2] . ≤ 200 nM

Supply IC50 measured with Recombinant human Cbl-b (aa 36-427) (Homo sapiens (Human), UniProt Q13191) for COc1ccc2c(c1)CN(c1cc(-c3ccccc3-c3nncn3C)cc(C3CC3)n1)C2=O [AER-1] . ≤ 200 nM

Fill in IC50 for Cn1cnnc1-c1cc(C#N)ccc1-c1cc(C2CC2)nc(N2Cc3c(F)cc(CNCC4(C)CCC4)cc3C2=O)c1 [ALO-2] tested with Recombinant human Cbl-b (aa 36-427) (Homo sapiens (Human), UniProt Q13191). ≤ 200 nM

Name the recorded IC50 of C[C@@H]1[C@@H](O)CCN1Cc1cc(F)c2c(c1)C(=O)N(c1cc(-c3ccc(C#N)cc3-c3nncn3C)cc(C3CC3)n1)C2 [ANC-2] , assay system Recombinant human Cbl-b (aa 36-427) (Homo sapiens (Human), UniProt Q13191). ≤ 200 nM

Enter IC50 (test system Recombinant human Cbl-b (aa 36-427) (Homo sapiens (Human), UniProt Q13191)) for CCNc1cc(-c2ccccc2-c2nncn2C)cc(N2Cc3c(cc(CN[C@@H]4CCC[C@@H]4O)cc3C(F)(F)F)C2=O)n1 [AQ-1] ≤ 200 nM
